Tested on: NCI-H441
Protocol Text: relative viability (nuclei count vs DMSO), 5 days (fraction); higher = more cells survive
Assay Context: first compound 8 µM
Known relative viability of a selection of compounds

Compound	relative viability
CCCCCCCCCCCC1=C(O)C(=O)C=C(O)C1=O [Embelin] + O=C(CCCCCCC(=O)Nc1ccccc1)NO [Vorinostat] (partner 1 µM)	0.657
CCCCCCCCCCCC1=C(O)C(=O)C=C(O)C1=O [Embelin] + Cc1cc(Nc2cc(N3CCN(C)CC3)nc(Sc3ccc(NC(=O)C4CC4)cc3)n2)n[nH]1 [Tozasertib] (partner 0.1 µM)	0.629
CCCCCCCCCCCC1=C(O)C(=O)C=C(O)C1=O [Embelin] + CC(=O)c1c(C)c2cnc(Nc3ccc(N4CCNCC4)cn3)nc2n(C2CCCC2)c1=O [Palbociclib] (partner 0.5 µM)	0.195
